- assayedTarget: Torsin-1A (Homo sapiens) (UniProt O14656)
- Sequence (O14656 whole entry, looked up): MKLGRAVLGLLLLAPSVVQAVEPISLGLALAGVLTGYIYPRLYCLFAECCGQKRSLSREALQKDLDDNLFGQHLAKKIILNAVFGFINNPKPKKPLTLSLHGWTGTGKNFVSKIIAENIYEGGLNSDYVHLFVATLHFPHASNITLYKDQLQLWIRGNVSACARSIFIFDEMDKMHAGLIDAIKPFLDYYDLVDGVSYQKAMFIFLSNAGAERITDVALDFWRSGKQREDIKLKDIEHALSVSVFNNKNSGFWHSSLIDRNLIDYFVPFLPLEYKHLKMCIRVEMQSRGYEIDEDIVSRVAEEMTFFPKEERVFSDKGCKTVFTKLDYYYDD
- experimentalProtocol: small-molecule binders of mutant TOR1A in lysate, primary screen, cell lysate, small-molecule microarray, COS7 lysate, 635/667 nm fluorescence (AID 1150);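 also: score pools 667 nm emission and signal to noise measuring lysate protein binding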
- testConditions: COS7 hTOR1A mutant lysate, 635 nm fluorescence, higher = more signal
measurementKind: composite z-score
Answers are plain numbers.

// solved cases for composite z-score follow
* COC(=O)[C@@]1(Cc2ccc(OC)cc2)[C@H]2c3cc(C(=O)N4CCCC4)n(CCc4ccc(OC)c(Br)c4)c3C[C@H]2CN1C(=O)c1ccccc1 | 0.57
* COCC(=C=CC[C@@H](O)c1cccc(OCCO)c1)C[C@@H](O)COCc1ccccc1 | 2.28

Hey, quick one: what's composite z-score for each of these?
1. CC(C)C(=C=CC[C@@H](O)c1cccc(OCCO)c1)CCO
2. COCCOC(=O)N1C(=O)[C@@]2(c3cc(C#CCCO)ccc31)[C@H](c1ccccc1OCCO)N1[C@H](c3ccccc3)[C@H](c3ccccc3)OC(=O)[C@H]1[C@@H]2C(=O)N1CCc2cc(OC)c(OC)cc2C1

Result string:
1: 0.0336; 2: 1.18
